Assay system: recombinant human ATX beta isoform with N-terminal purification tag (human, UniProt Q13822 49-863)
Test description: ELISA, Fab-His captured by anti-Fd, 5 nM biotinylated human ATX beta
Assay endpoint: Fab Binding

// known answers, use as guide
Fab F53 (VH H2, VL L30) (Fab, V domains shown, Soluble Fab-His; converted to mAb B4; also called P53) VH: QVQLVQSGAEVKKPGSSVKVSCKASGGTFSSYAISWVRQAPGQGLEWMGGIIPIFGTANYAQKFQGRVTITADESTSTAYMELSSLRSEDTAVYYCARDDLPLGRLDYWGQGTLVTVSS VL: EIVLTQSPATLSLSPGERATLSCRASQSVNKHLAWYQQKPGQAPRLLIYKASNRATGIPARFSGSGSGTDFTLTISSLEPEDFAVYYCQQGIRAPYTFGQGTKVEIK; 2.4e+06 relative chemiluminescence units
Fab F118 (VH H111, VL L104) (Fab, V domains shown, Soluble Fab-His; converted to mAb B11) VH: QVQLVQSGAEVKKPGSSVKVSCKASGGTFSSYGISWVRQAPGQGLEWMGGIIPIFGTANYAQKFQGRVTITADESTSTAYMELSSLRSEDTAVYYCARDDLPLGMLDYWGQGTLVTVSS VL: EIVLTQSPGTLSLSPGERATLSCRASQSVSSSYLAWYQQKPGQAPRLLIYGASSRATGIPDRFSGSGSGTDFTLTISRLEPEDFAVYYCQQYTAFPLTFGQGTKVEIK; 2.6e+06 relative chemiluminescence units

Specify reported Fab Binding for the binder shown: Fab F16 (VH H10, VL L13) (Fab, V domains shown, Soluble Fab-His; converted to mAb B2) VH: EVQLVQSGAEVKKPGESLKISCKGSGYSFTSYWIGWVRQMPGKGLEWMGIIYPGDSDTRYSPSFQGQVTISADKSISTAYLQWSSLKASDTAMYYCARGLADFWYFDYWGQGTLVTVSS VL: DIQMTQSPSSLSASVGDRVTITCRASQSIDVWLNWYQQKPGKAPKLLIYAASSLQSGVPSRFSGSGSGTDFTLTISSLQPEDFATYYCQQSYSTPLTFGQGTKVEIK
3.9e+06 relative chemiluminescence units

Sourced from patent US20150087812A1
